- Tested on: Saccharomyces cerevisiae BY4741 SeMeCo community
- assay_details: z-score of subpopulation abundance vs DMSO median, subpopulation auxotrophic for LUM; higher = larger share of this subpopulation than in DMSO controls
- condition_context: 10 µM; 24 h; SM minimal medium; subpopulation (auxotrophy): LUM
Label T when z-score of subpopulation abundance >= 0; otherwise F.

molecule="Clc1ccc(CCC(Cn2ccnc2)Sc2c(Cl)cccc2Cl)cc1 (stereo not given) [Butoconazole]" system_name="Saccharomyces cerevisiae BY4741 SeMeCo community" class=T
molecule="Cc1c(OCC(F)(F)F)ccnc1C[S+]([O-])c1nc2ccccc2[nH]1 (stereo not given) [Lansoprazole]" system_name="Saccharomyces cerevisiae BY4741 SeMeCo community" class=T
molecule="C[C@H]1COc2c(N3CCN(C)CC3)c(F)cc3c(=O)c(C(=O)O)cn1c23 [Levofloxacin]" system_name="Saccharomyces cerevisiae BY4741 SeMeCo community" class=F

Item CC1(C)[C@H](C(=O)O)N2C(=O)C[C@H]2S1(=O)=O [Sulbactam] with z-score of subpopulation abundance of 0 or above?
F
